Taken from patent US12005127B2.

Reported pIC50 values follow for various compounds
Target: UniProt:P78527
Test: DNA-PK cellular assay (pDNA-PK Ser2056 sandwich ELISA, NCS-induced DSBs)
Format: cell-based
Set-up: endogenous in cells; host or cells: A549 (human NSCLC)
Details: Table 2; pDNA-PK (Ser2056) in A549 cells, NCS 50 ng/ml, 15 minutes
From the text: DNA-PK is recruited to and activated by double-strand breaks (DSB) in DNA and plays a critical role in the non-homologous end-joining (NHEJ) repair mechanism. Upon activation, DNA-PK undergoes rapid autophosphorylation at Ser2056. The measure of pDNA-PK (Ser2056) in response to DNA DSBs provides a cellular signaling assay to evaluate potential DNA-PK kinase inhibitors. Neocarzinostatin (NCS) was used as a radiomimetic to induce DNA DSBs. […]
pIC50: −log10 of the molar value.

> print(dat)
                           smiles.structure        result
1  COc1ccc(COc2cc(N3CCOCC3)cc3ncnc(OC)c23)cc1        ≤ 6.00
2    COc1ccc(COc2cc(N3CCOCC3)cc3ncncc23)cc1        ≤ 6.00
3  COc1ccc(COc2cc(N3CCOCC3)cc3ncnc(C4CC4)c23)cc1  6.00 to 7.00
4  COc1ccc(COc2cc(N3CCOCC3)cc3nc[nH]c(=O)c23)cc1        ≤ 6.00

Continue with the compound presented below.
(Q) Kindly indicate its recorded pIC50. Item: "COc1ccc(COc2cc(N3CCOCC3)cc3ncnc(C#N)c23)cc1"
(A) ≤ 6.00

* * *

Molecular target: DNA-PK (Homo sapiens)
Test: DNA-PK cellular assay (pDNA-PK Ser2056 sandwich ELISA, NCS-induced DSBs)
Assay type: cell-based
Set-up: endogenous in cells; host or cells: A549 (human NSCLC)
Conditions: Table 1; pDNA-PK (Ser2056) in A549 cells, NCS 50 ng/ml, 15 minutes
pIC50: −log10 of the molar value.
measured_parameter: pIC50

(Q) Kindly indicate its recorded pIC50. Item: "CNC(=O)c1ccnc(N[C@H]2CC[C@@H](Oc3cc(N4CCOCC4)cc4ncncc34)CC2)n1"
(A) > 7.00

(Q) Kindly indicate its recorded pIC50. Item: "CCOC(=O)N[C@H]1CC[C@@H](Oc2cc(N3CCOCC3)cc3ncncc23)CC1"
(A) > 7.00

* * *

Target: UniProt:P78527
Assay: DNA-PK inhibition assay (radiometric 33P-ATP kinase assay)
Assay type: biochemical
Conditions: Table 2, 100 μM ATP, competitive tight-binding fit
Description: Compounds were screened for their ability to inhibit DNA-PK kinase using a standard radiometric assay. Briefly, in this kinase assay the transfer of the terminal ^33P-phosphate in ^33P-ATP to a peptide substrate is interrogated. […] Following the addition of 50 μL of Ultima Gold™ high efficiency scintillant (obtained from Perkin Elmer), the samples were counted in a Packard TopCount NXT Microplate Scintillation and Luminescence Counter (Packard BioScience). […]
Reported Ki values follow for various compounds

Record excerpt, results attached:
> print(dat)
                                   compound    assay.target            result
1  COc1ccc(COc2cc(N3CCOCC3)cc3ncnc(OC)c23)cc1 [Compound 53]  UniProt:P78527    0.01 to 0.1 µM
2  COc1ccc(COc2cc(N3CCOCC3)cc3ncncc23)cc1 [Compound 52]  UniProt:P78527  0.001 to 0.01 µM
3  COc1ccc(COc2cc(N3CCOCC3)cc3ncnc(Cl)c23)cc1 [Compound 54]  UniProt:P78527    0.01 to 0.1 µM

(Q) Kindly indicate its recorded Ki. Item: COc1ccc(COc2cc(N3CCOCC3)cc3ncnc(C#N)c23)cc1 [Compound 55]
(A) 0.001 to 0.01 µM

(Q) Kindly indicate its recorded Ki. Item: COc1ccc(COc2cc(N3CCOCC3)cc3nc[nH]c(=O)c23)cc1 [Compound 51]
(A) 0.1 to 1 µM
